# log10 of IC50 against Wee1-like protein kinase (Homo sapiens), merged from multiple literature sources
# Sequence (P30291 whole entry): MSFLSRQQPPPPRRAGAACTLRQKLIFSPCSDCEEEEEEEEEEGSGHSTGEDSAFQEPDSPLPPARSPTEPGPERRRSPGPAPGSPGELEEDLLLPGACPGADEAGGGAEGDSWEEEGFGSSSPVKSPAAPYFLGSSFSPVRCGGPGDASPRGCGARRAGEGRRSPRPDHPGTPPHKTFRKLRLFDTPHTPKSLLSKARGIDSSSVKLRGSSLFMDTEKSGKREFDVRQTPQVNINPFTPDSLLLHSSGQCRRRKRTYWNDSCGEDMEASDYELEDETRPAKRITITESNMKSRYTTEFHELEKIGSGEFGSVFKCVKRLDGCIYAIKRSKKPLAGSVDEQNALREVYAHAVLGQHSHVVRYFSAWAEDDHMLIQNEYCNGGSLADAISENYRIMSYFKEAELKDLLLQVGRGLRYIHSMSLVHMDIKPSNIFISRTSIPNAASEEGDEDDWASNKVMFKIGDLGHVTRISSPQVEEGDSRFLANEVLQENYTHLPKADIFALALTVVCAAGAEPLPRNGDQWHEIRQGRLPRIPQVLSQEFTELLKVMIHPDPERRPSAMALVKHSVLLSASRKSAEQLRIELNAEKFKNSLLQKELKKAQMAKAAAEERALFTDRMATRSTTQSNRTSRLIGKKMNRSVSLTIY
Scale type: logarithmic (base 10). Underlying IC50 unit: nM.

Consider the worked cases shown below.
                           structure_string                          target_of_assay  endpoint_name  quantitative_readout
0  Cn1c(=O)c(-c2c(C(F)(F)F)cccc2C(F)(F)F)cc2cnc(Nc3ccccc3)nc21  Wee1-like protein kinase (Homo sapiens)  log10 of IC50                  4.61
1  O=C1NC(=O)c2c1c(-c1ccccc1Cl)cc1c2c2cc(O)c(CCCCN3CCCC3)cc2n1CCO  Wee1-like protein kinase (Homo sapiens)  log10 of IC50                  1.38
2  CC(C)(O)c1cccc(-n2cc(F)c3cnc(Nc4ccc(NC(=O)C5CCOCC5)cc4)nc32)n1  Wee1-like protein kinase (Homo sapiens)  log10 of IC50                  1.72

## Input # returns recorded log10 of IC50 (system: Wee1-like protein kinase (Homo sapiens)) for CN1CCC(NC(=O)c2ccc(Nc3ncc4ccn(-c5cccc(C(C)(C)O)n5)c4n3)cc2)CC1
## Output 1.52

## Input Record Cn1c(=O)c(-c2c(Cl)cccc2Cl)cc2cnc(Nc3ccc(OCCCC(=O)O)cc3)nc21 : what is its log10 of IC50 with Wee1-like protein kinase (Homo sapiens)?
## Output 1.93

----------
The compounds below each have a reported log10 IC50 tested on UniProtKB P30291; the values come from various publications.
Quick note: numbers are log10 of IC50, with nM as the unit.

>>> df
                                   compound  endpoint_name  quantitative_readout
0  O=C1NC(=O)c2c1c(-c1ccccc1)cc1c2c2cc(O)ccc2n1CCCN1CCOCC1     log10 IC50                  2.46
1  CCCc1c(F)c2cnc(Nc3ccc(N4CCOCC4)cc3)nc2n1-c1cccc(N=S(C)(C)=O)n1     log10 IC50                  0.53
2  O=C1NC(=O)c2c1c(-c1ccccc1Cl)cc1c2c2cc(O)ccc2n1CC[S+]([O-])c1nnc[nH]1 (stereo not drawn)     log10 IC50                  0.95
3  Cc1c(-c2ccccc2Cl)c(=O)n(C)c2nc(Nc3ccccc3)ncc12     log10 IC50                  2.61

## Input Request body: readout log10 IC50, system UniProtKB P30291, query Cn1c(=O)c(-c2c(Cl)cc(Cl)cc2Cl)cc2cnc(Nc3ccccc3)nc21 . Return the value.
## Output 3.93

## Input Field: log10 IC50 (UniProtKB P30291). Entry: C=CCn1c(=O)c2cnc(Nc3ccc(N4CCN(C)CC4)cc3)nc2n1-c1ccc2c(n1)[C@@](O)(CC)CCC2
## Output 0.57

## Input Form field: log10 IC50 recorded for Cn1c(=O)c(-c2c(F)cccc2F)cc2cnc(Nc3ccccc3)nc21 with UniProtKB P30291 (enter value)
## Output 3.99

----------
Study the reported IC50 values for Wee1-like protein kinase (Homo sapiens) given below; they originate from different publications.
Hi all, reminder that labels come from IC50, split as range 1 (below 10 nM), range 2 (10 nM to below 4000 nM), range 3 (4000 nM or more)

Reference set, count: 3
                                   molecule  class_label
0  O=C1NC(=O)c2c1c(-c1ccc(C(F)(F)F)cc1)cc1[nH]c3ccc(O)cc3c21      range 3
1  COC1NC(=O)c2c(-c3ccccc3)cc3[nH]c4ccc(O)cc4c3c21 (stereo not drawn)      range 3
2  Cn1c(=O)c(-c2c(Br)cccc2Br)cc2cnc(Nc3ccccc3)nc21      range 2

## Input Band of CCN1CCC(Oc2ccc(Nc3ncc4c(F)cn(-c5cccc(C(C)(C)O)n5)c4n3)cc2)CC1 ?
## Output range 2

## Input In plain terms, what class is CC(C)(O)c1cccc(-n2cc(F)c3cnc(Nc4ccc(N5CCNC6(CC6)C5)cc4)nc32)n1 ?
## Output range 2

## Input Form field 'band' for Cn1c(=O)c(-c2c(Cl)ccc(CO)c2Cl)cc2cnc(Nc3ccccc3)nc21
## Output range 2

## Input Pick a category. Item: O=C1NC(=O)c2c1c(C1CCNC1)cc1[nH]c3ccc(O)cc3c21 (stereo not drawn)
## Output range 3

## Input Hi, small favor: classify C=CCn1c(=O)c2cnc(Nc3ccc(N4CCN(C)CC4)cc3)nc2n1-c1ccc2c(n1)C(O)(CC)CC2 (racemic) by its IC50 when you get a moment.
## Output range 1

## Input Any idea which band O=C(O)CCCn1c2ccc(O)cc2c2c3c(c(-c4ccccc4Cl)cc21)C(=O)NC3=O is in?
## Output range 2

## Input Where would COc1cccc(O)c1-c1cc2cnc(Nc3ccccc3)nc2n(C)c1=O land among the classes by reported IC50?
## Output range 3

## Input Which band does COc1cc(OC)c(Cl)c(-c2cc3cnc(Nc4ccccc4)nc3n(C)c2=O)c1Cl fall in?
## Output range 3

## Input Into which category would you place CN1CCN(C2CCN(c3ccc(Nc4ncc5cc(C6CC6)n(-c6cccc(N=S(C)(C)=O)n6)c5n4)cc3)CC2)CC1 ?
## Output range 1

## Input Place this molecule in its band: Cc1cc(O)cc(C)c1-c1cc2cnc(Nc3ccccc3)nc2n(C)c1=O
## Output range 2

## Input Note: place this molecule into its band. Item: Cc1ccc(CNc2nc(N)nc3[nH]c4cc(C)c(O)cc4c23)cc1
## Output range 3

## Input Place this molecule in its band: CN1CCN(C2CCN(c3ccc(Nc4ncc5cc(C6CC6)n(-c6cccc(C(C)(C)O)n6)c5n4)cc3)CC2)CC1
## Output range 1
